- Test system: sclerostin (Homo sapiens, UniProt Q9BQB4)
- Construct: host or cells: human embryonic cells (assay cells)
- Sequence (Q9BQB4 24-213, species assumed): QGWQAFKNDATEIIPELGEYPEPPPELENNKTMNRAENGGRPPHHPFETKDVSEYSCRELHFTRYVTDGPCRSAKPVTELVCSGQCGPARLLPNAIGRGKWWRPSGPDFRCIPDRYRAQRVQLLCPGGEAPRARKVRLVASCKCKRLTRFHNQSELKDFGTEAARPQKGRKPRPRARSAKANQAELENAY
- Protocol details: Modulation of sclerostin/Wnt activity: restoring Wnt3a signaling in the presence of sclerostin
- Type: cell-based
- Design: key: − indicates no improvement over sclerostin protein alone; + indicates an IC100 >10 μM; ++ indicates an IC100 <10 μM
- Measurement parameters: IC100 class; Wnt3a signaling in human embryonic cells in the presence of sclerostin
Measurement label: Sclerostin Inhibition Assay; improvement over sclerostin alone

>>> measured_value("Cl.[O-][n+]1ccc2c3ccnc(C(F)(F)F)c3n(CCN3CCOCC3)c2c1")
"−"
